Source: PubChem BioAssay AID1996

solubility kinetic listing for selected compounds.
Settings: buffer; pH 7.4; 200.0 µM
Write the value in µg/mL as a bare number.

Example compounds with recorded solubility kinetic:
compound=O=C(Nc1ccccc1C(=O)Nc1ccc(Cl)cc1)c1cccnc1 quantity_name="solubility kinetic" readout_number=0.6
compound=Cc1ccc(CC(=O)NCC2CCCCC2)cc1 quantity_name="solubility kinetic" readout_number=9.3
compound="CC(C#N)Sc1ncnc2sc(-c3ccccc3)cc12 (centres undefined)" quantity_name="solubility kinetic" readout_number=0.8
compound="CC(NC(=O)c1ccc([N+](=O)[O-])o1)C12CC3CC(CC(C3)C1)C2 (centres undefined)" quantity_name="solubility kinetic" readout_number=29.5
compound=O=C(/C=C/c1cccs1)NCc1ccc2c(c1)OCO2 quantity_name="solubility kinetic" readout_number=6.3
compound="CC1CCCC(NC(=O)COC(=O)[C@@H](NC(=O)c2ccccc2Cl)C(C)C)C1C (some centres undefined)" quantity_name="solubility kinetic" readout_number=46.1
compound=COc1ccc(CCNCc2ccsc2)cc1OC quantity_name="solubility kinetic" readout_number=37.1
compound=Nc1ccc(-c2ncc(-c3ccccc3)o2)cc1 quantity_name="solubility kinetic" readout_number=4.3

Exercise: Given the compound Cc1cccc(OCCn2c(=O)oc3ccc(C)cc32)c1 , write its reported solubility kinetic.
Solution: 3.8

Exercise: Annotate the compound CC(=O)c1csc(Nc2ccccc2Cl)n1 with its measured solubility kinetic.
Solution: 32.8

Exercise: Please report the measured solubility kinetic for COc1ccc(CNC(=O)COC(=O)c2ccc(S(=O)(=O)NCc3ccco3)cc2)cc1
Solution: 8

Exercise: Tell me solubility kinetic reported for N#Cc1nc(-c2ccccc2)oc1N1CCC(C(N)=O)CC1
Solution: 39.7

Exercise: Please report the measured solubility kinetic for CC(CCc1ccc(O)cc1)NC1c2ccccc2-c2ccccc21 (centres undefined)
Solution: 26.1

====

Details: buffer; pH 7.4; 200.0 µM
quantity_name: solubility kinetic (µg/mL)
Reply with just the number (in µg/mL).

item_smiles=Cc1cc(C(=O)NCCC(C)C)c2ccccc2n1 readout_number=31
item_smiles=O=C(Nc1ccc(Cl)cc1)N1CCSC1=NCc1ccccc1 readout_number=26
item_smiles=CCN(Cc1nc(-c2ccc(OC)cc2)no1)C(=O)c1ccoc1C readout_number=41.1

Exercise: Given the molecule CN1CCN(c2ccc(CNS(=O)(=O)c3ccccc3)cc2)CC1 , write its reported solubility kinetic.
Solution: 12.6

Exercise: Provide only the value of recorded solubility kinetic for COc1cc(N2C(=O)CSC2=S)cc(OC)c1OC
Solution: 41

Exercise: For the molecule Cc1ccc(-c2nc(C#N)c(N3CCC(C(N)=O)CC3)o2)cc1 , give its reported solubility kinetic.
Solution: 1.6

====

Settings: buffer; pH 7.4; 200.0 µM
# label = 1 (yes) if solubility kinetic >= 2 µg/mL else 0 (no)

compound="O=C1c2ccccc2C2(c3ccc(F)cc3)NCCN12 (stereo not given)" assigned_label="1 (yes)"
compound=CCNC(=O)C(=O)Nc1cc2c3c(c1)CCC(=O)N3CCC2 assigned_label="1 (yes)"

Exercise: Threshold query (solubility kinetic >= 2 µg/mL) on N#Cc1ccc(C(=O)NN2C(=O)NC3(CCCCC3)C2=O)cc1
Solution: 1 (yes)

Exercise: Reported solubility kinetic reaches at least 2 µg/mL for O=C(Nc1cc(Cl)ccc1O)c1cc(-c2ccco2)on1 ?
Solution: 0 (no)

Exercise: # bool: solubility kinetic of CCn1c(CCc2ccccc2)nnc1SCC(N)=O >= 2 µg/mL
Solution: 1 (yes)

Exercise: Identify whether the reported solubility kinetic of the following compound is 2 µg/mL or greater: Cc1cc(=O)oc2c(CN3CCN(CCO)CC3)c(O)ccc12
Solution: 1 (yes)

====

Details: buffer; pH 7.4; 200.0 µM
Mark Condition not met for solubility kinetic values under 8 µg/mL, and Condition met for everything at or above.

molecule=COc1cccc(NC(=O)CN2CCc3ccccc3C2)c1 assigned_label="Condition met"
molecule=CCOC(=O)CNC(=O)c1ccc(Cl)s1 assigned_label="Condition met"
molecule=COc1ccc(OCC(=O)Nc2ccncc2)cc1 assigned_label="Condition met"
molecule=O=C(CSc1ccccc1)N1CCN(C(=O)c2ccco2)CC1 assigned_label="Condition met"
molecule=CCCCc1nnc(NC(=O)C(=O)OCC)s1 assigned_label="Condition met"

Exercise: Check this molecule for solubility kinetic at or above 8 µg/mL: O=C(NCc1ccccn1)Nc1cccc([N+](=O)[O-])c1
Solution: Condition met

Exercise: Check the entry O=C(NCCN1CCCCC1)Nc1ccccc1F : does solubility kinetic equal or exceed 8 µg/mL?
Solution: Condition met

Exercise: Could you please find out whether Cn1c(N)c(C(=O)COC(=O)Cc2ccc(Cl)c(Cl)c2)c(=O)n(C)c1=O has solubility kinetic that meets 8 µg/mL or exceeds it?
Solution: Condition met

Exercise: Record COc1ccc2oc(C(=O)NCC3CCCO3)c(C)c2c1 (stereo unspecified) ; criterion: solubility kinetic no lower than 8 µg/mL. Met?
Solution: Condition met

Exercise: Could you tell me if the measured solubility kinetic of CC(C)Oc1ccc(C2CC(=O)N(C)C2=O)cc1 (stereo unspecified) reaches 8 µg/mL or more?
Solution: Condition met

Exercise: Given the entry Cc1ccc(C(=O)CCC(=O)Nc2ccccc2C)cc1C , answer whether its solubility kinetic meets or surpasses 8 µg/mL.
Solution: Condition not met

Exercise: Say whether CCOC(=O)c1[nH]cnc1C(=O)Nc1ccc([N+](=O)[O-])cc1 shows solubility kinetic of 8 µg/mL or more.
Solution: Condition not met

Exercise: In plain terms: is recorded solubility kinetic at least 8 µg/mL for CC(C)CNC(=O)CO/N=C/c1ccccc1Cl ?
Solution: Condition met

Exercise: Can COc1cccc(CN2C(=O)NC3(CCCCCC3)C2=O)c1 be said to have solubility kinetic at or above 8 µg/mL?
Solution: Condition met

Exercise: Please tell me: is the molecule O=C(Nc1ccc(Br)cc1Cl)c1ccc(OCC2CCCO2)cc1 (stereo unspecified) at or over 8 µg/mL in terms of solubility kinetic?
Solution: Condition not met

Exercise: Could you tell me if the measured solubility kinetic of O=C(O)c1ccc2[nH]c3c(c2c1)CCCC3 reaches 8 µg/mL or more?
Solution: Condition met

Exercise: Determine whether this molecule has solubility kinetic no lower than 8 µg/mL: CCOc1ncccc1C(=O)NC(C)CCc1ccccc1 (stereo unspecified)
Solution: Condition met

Exercise: Tell me whether solubility kinetic is at least 8 µg/mL here: Cc1ccc(NC(=O)COC(=O)CCC2CCCC2)cc1S(=O)(=O)N1CCOCC1
Solution: Condition met

Exercise: Kindly determine if solubility kinetic recorded for NC1=NC(c2cccnc2)n2c(nc3ccccc32)N1 (stereo unspecified) is above or exactly 8 µg/mL.
Solution: Condition met

Exercise: Is solubility kinetic for COc1ccc(/C(N)=N/OC(=O)C2CCCCC2)cc1OC at or above 8 µg/mL?
Solution: Condition met

Exercise: Evaluate Cc1cc(C)c(S(=O)(=O)Nc2ccncc2)cc1C : solubility kinetic at minimum 8 µg/mL?
Solution: Condition met

Exercise: Assess whether reported solubility kinetic for CCN(CC(=O)NC(=O)NCc1ccccc1)Cc1ccccc1 sits at 8 µg/mL or higher.
Solution: Condition met

Exercise: Say whether N#C/C(=C\c1ccncc1)c1ccccn1 shows solubility kinetic of 8 µg/mL or more.
Solution: Condition met

Exercise: Decide: is the reported value of solubility kinetic for CN(C1CCCCC1)S(=O)(=O)c1ccc(-c2ccccn2)s1 equal to or greater than 8 µg/mL?
Solution: Condition not met

Exercise: Given the entry Oc1ccc2ccccc2c1CNc1ccc(Br)cn1 , answer whether its solubility kinetic meets or surpasses 8 µg/mL.
Solution: Condition not met

====

Settings: buffer; pH 7.4; 200.0 µM
quantity_name: solubility kinetic (µg/mL)
Number only, in µg/mL; omit the unit.

item_smiles=COc1ccc(OCC(=O)Nc2ccc3oc(=O)ccc3c2)cc1 value_units=µg/mL readout_number=3.3

Exercise: Return solubility kinetic for the following molecule: Cc1onc(-c2c(Cl)cccc2Cl)c1C(=O)c1ccccc1
Solution: 5.1

Exercise: Specify reported solubility kinetic for the molecule shown: Cc1ccccc1CN(C)C(=O)CNC(=O)c1ccc2ccccc2c1
Solution: 31.1

Exercise: Give the reported value of solubility kinetic for this record: Cc1c(Cl)cccc1NC(=O)Cn1c(-c2ccc(F)cc2)noc1=O
Solution: 4

Exercise: Name the recorded solubility kinetic of the item CCN(C(=O)COc1ccccc1)C1CCCCC1 in your answer.
Solution: 37.4

Exercise: For the molecule O=C(c1ccc(F)cc1)N1CCN(c2ccc([N+](=O)[O-])cc2-n2cccc2)CC1 , report solubility kinetic.
Solution: 3.3

Exercise: Supply recorded solubility kinetic for COc1ccccc1NC(=O)CCN1CCN(C)CC1 here.
Solution: 38.6

====

# reported log10 solubility kinetic; entries follow
Settings: buffer; pH 7.4; 200.0 µM
Lab note - solubility kinetic converted to log10 from values in µg/mL.

Exercise: Kindly indicate its recorded log10 solubility kinetic. Item: COc1ccc(C2=NOC(C(=O)Nc3ccc4c(c3)OCO4)C2)cc1 (configuration not stated)
Solution: 0.20

Exercise: Recall and state the measured log10 solubility kinetic for COc1ccc(C(=O)N[C@H](C(=O)NC2CCCCC2)C(C)C)cc1 .
Solution: 0.71

Exercise: Return reported log10 solubility kinetic. Input molecule: CC(=O)Nc1ccc(NC=C(C#N)C#N)cc1
Solution: 0.62

Exercise: Look up and report measured log10 solubility kinetic for this entry: O=C(Nc1nc2cc3c(cc2s1)OCO3)c1ccc(N2C(=O)CCC2=O)cc1
Solution: 0.04

Exercise: Note log10 solubility kinetic for the molecule shown: CNc1ccc(C(=O)OCC(=O)NC(=O)NC2CCCCC2)cc1[N+](=O)[O-]
Solution: 0.23

Exercise: Look up and state reported log10 solubility kinetic for Cc1noc2ncnc(SCc3ccc(C(F)(F)F)cc3)c12
Solution: 0.04

Exercise: Supply measured log10 solubility kinetic of CCOc1cc(C(N)=O)cc(Cl)c1OCC in your reply.
Solution: 1.54
